# Test system: RXF 393 renal
# ASSAY TEXT: NCI tumour cell line growth inhibition, 48 h
MEASURED QUANTITY: TGI (µM)
Supply the numeric figure in µM, leaving out any unit text.

Quick one: TGI for COc1cccc(/C=C/[N+](=O)[O-])c1 ?
3.39

Here is the next compound: CC1=NN(c2cccc(Cl)c2)C2(SCC(=O)N2c2nc3ccccc3s2)/C1=C\c1ccc(N(C)C)cc1 (configuration not stated)
44.8

Same question for CN(C)CCCn1c(Cc2ccc(Cl)cc2)nc2cc(C(F)(F)F)ccc21 please.
22.7

How about CCn1c(SCC(=O)N/N=C/c2ccccc2)nc2ccccc2c1=O ?
27.2
